systemName: UniProt P48067
experiment: [3H]glycine uptake inhibition in Flp-in-CHO cells
Assay type: cell-based
quantityKind: IC50 (µM)
Hi! Could you send only the number? It should be in µM, unit omitted.

Name the recorded IC50 of the molecule listed here: CS(=O)(=O)c1ccc(OCC(F)(F)C(F)(F)F)c(C(=O)N2Cc3ccc(OC4CCOCC4)cc3C2)c1 [Cmpd1]
0.0264

====

systemName: human GlyT1 (hGlyT1) (Homo sapiens)
Sequence (P48067 whole entry): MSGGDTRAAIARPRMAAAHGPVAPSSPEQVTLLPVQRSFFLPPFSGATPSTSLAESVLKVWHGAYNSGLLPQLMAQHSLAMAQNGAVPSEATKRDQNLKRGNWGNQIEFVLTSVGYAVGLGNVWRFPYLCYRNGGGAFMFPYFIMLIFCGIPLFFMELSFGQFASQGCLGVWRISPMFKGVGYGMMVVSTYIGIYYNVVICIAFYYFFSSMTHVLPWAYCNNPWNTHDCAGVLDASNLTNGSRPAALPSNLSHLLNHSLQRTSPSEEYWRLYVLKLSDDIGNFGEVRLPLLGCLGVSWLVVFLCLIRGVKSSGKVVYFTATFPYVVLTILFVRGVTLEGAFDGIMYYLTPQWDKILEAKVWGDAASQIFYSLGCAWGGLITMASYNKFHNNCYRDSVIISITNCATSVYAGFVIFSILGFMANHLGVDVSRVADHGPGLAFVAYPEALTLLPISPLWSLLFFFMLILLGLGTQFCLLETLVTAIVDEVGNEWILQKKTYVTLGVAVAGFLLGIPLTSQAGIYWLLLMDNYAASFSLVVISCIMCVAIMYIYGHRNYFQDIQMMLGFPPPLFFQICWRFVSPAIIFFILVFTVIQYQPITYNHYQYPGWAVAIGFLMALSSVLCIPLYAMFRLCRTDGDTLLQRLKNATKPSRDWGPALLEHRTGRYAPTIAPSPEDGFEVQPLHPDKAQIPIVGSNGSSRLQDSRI
experiment: [3H]Org24598 membrane competition, filtration
Type: binding
quantityKind: pIC50
Scale: pIC50 equals -log10([C]), with [C] in mol/L.

Quick one: give measured pIC50 for CS(=O)(=O)c1ccc(OCC(F)(F)C(F)(F)F)c(C(=O)N2Cc3ccc(OC4CCOCC4)cc3C2)c1
7.90
